Sourced from paper PMC10112521

Kindly state hill_tp (Hill model top) for each of the entries shown.
Target: human AR (Homo sapiens)
Sequence (P10275 whole entry): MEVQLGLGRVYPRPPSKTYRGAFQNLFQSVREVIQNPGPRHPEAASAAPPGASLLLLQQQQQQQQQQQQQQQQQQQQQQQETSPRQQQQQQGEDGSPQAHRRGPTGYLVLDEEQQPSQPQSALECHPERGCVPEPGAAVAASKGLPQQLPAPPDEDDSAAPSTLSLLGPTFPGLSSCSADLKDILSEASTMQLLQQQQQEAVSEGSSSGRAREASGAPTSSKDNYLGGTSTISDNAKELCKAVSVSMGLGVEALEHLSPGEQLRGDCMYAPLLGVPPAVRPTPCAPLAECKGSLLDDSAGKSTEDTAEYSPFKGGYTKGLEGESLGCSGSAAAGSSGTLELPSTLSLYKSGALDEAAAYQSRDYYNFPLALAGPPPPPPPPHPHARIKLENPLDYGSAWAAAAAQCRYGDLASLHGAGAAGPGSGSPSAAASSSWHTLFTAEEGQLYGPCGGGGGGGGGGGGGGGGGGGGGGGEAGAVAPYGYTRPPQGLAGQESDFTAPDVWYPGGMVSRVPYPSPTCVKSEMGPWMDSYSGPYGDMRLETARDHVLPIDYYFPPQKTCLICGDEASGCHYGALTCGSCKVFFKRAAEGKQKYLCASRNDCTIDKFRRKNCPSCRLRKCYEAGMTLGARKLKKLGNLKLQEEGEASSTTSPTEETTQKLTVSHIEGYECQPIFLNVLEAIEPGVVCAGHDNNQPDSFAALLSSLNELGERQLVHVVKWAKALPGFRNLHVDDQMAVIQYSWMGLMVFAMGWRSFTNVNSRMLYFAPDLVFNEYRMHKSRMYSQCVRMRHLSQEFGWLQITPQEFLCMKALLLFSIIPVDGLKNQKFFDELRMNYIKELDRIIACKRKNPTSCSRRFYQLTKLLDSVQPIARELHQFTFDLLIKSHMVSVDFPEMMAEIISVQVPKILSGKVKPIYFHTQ
Sequence (P10275 whole entry): as above
Assay: AR2 assay, antagonist mode: disruption of R1881 (10 nM)-induced AR homodimerization in HepG2-AR2 cells
Assay type: cell-based
Conditions: spid AR_antagonist; sheet antagonist_fits; 0 where win_model is Constant
Where a name gives a salt, the structure may show the parent alone.
Just the number.

Report measured hill_tp (Hill model top); entry is "CC(C)(c1ccc(O)cc1)c1ccc(O)cc1"
118.275

Report measured hill_tp (Hill model top); entry is "O=[N+]([O-])c1ccc(O)c([N+](=O)[O-])c1"
60.4053

Report measured hill_tp (Hill model top); entry is "O=[N+]([O-])c1c(Cl)c(Cl)c(Cl)c(Cl)c1Cl"
49.0252

Report measured hill_tp (Hill model top); entry is C[C@]12CC[C@@H]3c4ccc(O)cc4C[C@@H](CCCCCCCCC[S+]([O-])CCCC(F)(F)C(F)(F)F)[C@H]3[C@@H]1CC[C@@H]2O (some centres unmarked)
36.6036

Report measured hill_tp (Hill model top); entry is CC(C)=CC1C(C(=O)OCN2C(=O)C3=C(CCCC3)C2=O)C1(C)C (centres unmarked)
4.695

Report measured hill_tp (Hill model top); entry is CCOC(=O)CC(SP(=S)(OC)OC)C(=O)OCC (centres unmarked)
41.649

Report measured hill_tp (Hill model top); entry is O=C(c1ccc(O)cc1O)c1ccc(O)cc1O [2,2',4,4'-Tetrahydroxybenzophenone]
93.4271

Report measured hill_tp (Hill model top); entry is CCN(CC)CCOc1ccc(/C(=C(/Cl)c2ccccc2)c2ccccc2)cc1 [Enclomiphene hydrochloride]
106.442
